# measured target: PaSuhB (Pseudomonas aeruginosa, UniProt Q9HXI4)
# Sequence (Q9HXI4 1-271): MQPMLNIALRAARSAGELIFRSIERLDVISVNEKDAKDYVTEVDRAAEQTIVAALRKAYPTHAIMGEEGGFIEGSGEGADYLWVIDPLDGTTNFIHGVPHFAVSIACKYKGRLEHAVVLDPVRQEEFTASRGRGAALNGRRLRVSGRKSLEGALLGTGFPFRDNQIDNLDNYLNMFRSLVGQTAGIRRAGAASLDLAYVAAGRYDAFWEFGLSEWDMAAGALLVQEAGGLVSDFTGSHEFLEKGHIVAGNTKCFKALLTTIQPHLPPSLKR
# experiment notes: biochemical
readout type: Kd (µM)
Answer in µM, number only, no unit symbol.

QUERY: Query: Kd; subject: O=C(O)c1cc(O)c(O)c(O)c1 [GDE, 3,4,5-trihydroxybenzoic acid]
RESULT: 8.71
